Data provenance: the DeepSol protein solubility set

- Test summary: soluble on expression in E. coli; label from the status in PepcDB or PDB records
Quantity measured: soluble on expression in E. coli

These solved cases illustrate the format of a correct answer.
GMAYEQFAYVYDELMQDVPYPEWVAWVLEQVEPGKRIADIGCGTGTATLLLADHYEVTGVDLSEEMLEIAQEKAMETNRHVDFWVQDMRELELPEPVDAITILCDSLNYLQTEADVKQTFDSAARLLTDGGKLLFDVHSPYKMETLFNGKTYATHAEQSSYIWFADPGEEPLSVVHELTFFIEGEDGRYDRVDETHHQRTYPPEQYITWLREAGFRVCAVTGDFKSDAPTETAERIFFVAEKI: soluble
MAHHHHHHSLIQAVLFDLDGTLADTALDLGGALNTLLARHGLPAKSMDEIRTQASHGAAGLIKLGAGITPDHPDYARWRTEYLDEYDSRYAQDTTLFDGVNELIAELGKRGIKWGIITNKPMRFTDKLVPKLGFIIPPAVVVSGDTCGEPKPSVKPMLYACGQIHADPQHTLYVGDAERDIQAGRNAGMTTVLAEWGYIAPEDDTGSWQADFHIRTPLDLLECLDKIQPEG: soluble
MPVGRREQIVDCRSVMGLGEGGGLAQRGTFAEALKNDVVVVAMSPGRRHITKPVCEITYGIREAGIQTSVLVLNAGSGIPHDAPRGALGSTFGIKPEEAEQINRHKLCVVHFGNVISHIVYKAGLLLKYVEIPTIIVCQAPVDMEDLAKYGIKTRDVMPLEPKTKGTVVDIVTGVIRGESCPQTKIDEVIRKIKLHLNLNLEHHHHHH: soluble
MSSASAHHKKDLLDQVNNPVFLQDLRQQMIKFAVLQLASLPHAEDVVQDALASAFQHLDSFTGRAAFKTWVFAILKNKIIDLIRQKSRLVSMSELFKDEESELSIDALFDASGHWHKYEAPQAWLSPEEMMEQQDFWIIFDACLNHLPAKYAQVFMLREVIELNSSEICEKLELTVSHFNVLMYRSRTRLRECLENKWLLQEDCSC: not soluble

Query :: Note soluble on expression in E. coli for the sequence shown: MSGSMLQLIDLCKGYVDGDEFHPVLQGAELTLNQGDQLALMGESGSGKSTLLNLIAGLDSADSGEIWFPGFPMHHTSEHHRTAFRRDNIGQIFQQYNLLPTLNIADNIRFCRQLKGLPEDAGLWRQILSALDLMPLLGRYPEEVSGGQQQRAAIARALYMEPKILLADEPTGSLDERNAEAVMRLLTTLTRQLNCALLLVTHSEKVAQHMDGCIRLQGGQLHVMARS
Result :: not soluble

----------
- Test summary: soluble on expression in E. coli; label from the status in PepcDB or PDB records
Quantity measured: soluble on expression in E. coli

MDSGRLAVIALGGNAIAGPGMDVSVESQTAAVKRASSIIADVLADGWRSVITHGNGPQVGYLSEAFEALPPERPRQPLYIATAMTQAWIGLLLKHSLEEELRRRGLNVLVPVVISRVLVDVSDPSFNNPSKPVGPIYGREEAEELSRRYGWVFKRDPRGGFRRVVPSPRPVSIVDRDLIAEASAESPAVVALGGGGVPVVERPGGVLEPVEAVVDKDLASSLLATQLNADLLVILTDVPGVAVNYGREGERWLRRAAASELKKYLREGHFPPGSMGPKVEAAISFVERTGKPAVIGSLEEARQVLSLQAGTVVMLG: soluble
MGHHHHHHSHMQQQETNLLANLTTNDARDNSKDFQNSKVGAAATSRDEGCNCPIIGEIVISCYWLFEIPPLISE: soluble
MTIRSYKNLNLVRANIETESRQFIENKNYSIQSIGPMPGSRAGLRVVFTRPGVNLATVDIFYNGDGSTTIQYLTGANRSLGQELADHLFETINPAEFEQVNMVLQGFVETSVLPVLELSADESHIEFREHSRNAHTVVWKIISTSYQDELTVSLHITTGKLQIQGRPLSCYRVFTFNLAALLDLQGLEKVLIRQEDGKANIVQQEVARTYLQTVMADAYPHLHVTAEKLLVSGLCVKLAAPDLPDYCMLLYPELRTIEGVLKSKMSGLGMPVQQPAGFGTYFDKPAAHYILKPQFAATLRPEQINIISTAYTFFNVERHSLFHMETVVDASRMISDMARLMGKATRAWGIIKDLYIV: soluble

----------
- Test summary: soluble on expression in E. coli; label from the status in PepcDB or PDB records
Quantity measured: soluble on expression in E. coli

MAHHHHHHMIVASSLEVRNYGEWVRQVRAERIIVNCPDEMDVKAMCAWMKRDETKEKQAECWKEVKKHMYLLGPIPRHVFDEEAFTERCGAVKFALQSINDVTVKECFPRGGESPWCSEDPSHKPVRVVREIYEGSVILFNAPMCDCLEERTLKRLPSVAE: not soluble
MMIENDETLNELHNDEEFCIKEQLSHVDHDEKVHVDSIVKKSECAHNYEQREKRDRSSSVDSKPEIKKICRCHESNCSKSSKYEKSSCGSKNKSGDSLSTASTGINECLNNSKNLNEPFKFFIGGIPQYITSKDTHELNGKRVDVREENNTTPSDIQRKIFVGGLNYYWTKDTLESYFSTFGEIDVVQIVLDSSGRSRCFGFVVFSNENSVAKVLKHKRHKIYDKMVEVRKAEPKKPKMSIKRSNNKNFSKFPPHIPFMAPFPPCNKETMAQWANFMYNTCGVPFLFNQRFQNLPDFYSNYNYYQNSLENIQQSEYNN: not soluble
MQGQIIKALAGFYYVESDGQVYQTRARGNFRKKGHTPYVGDWVDFSAEENSEGYILKIHERKNSLVRPPIVNIDQAVVIMSVKEPDFNSNLLDRFLVLLEHKGIHPIVYISKMDLLEDRGELDFYQQTYGDIGYDFVTSKEELLSLLTGKVTVFMGQTGVGKSTLLNKIAPDLNLETGEISDSLGRGRHTTRAVSFYNLNGGKIADTPGFSSLDYEVSRAEDLNQAFPEIATVSRDCKFRTCTHTHEPSCAVKPAVEEGVIATFRFDNYLQFLSEIENRRETYKKVSKKIPK: not soluble

----------
- Test summary: soluble on expression in E. coli; label from the status in PepcDB or PDB records
Quantity measured: soluble on expression in E. coli

These solved cases illustrate the format of a correct answer.
MAHHHHHHMGYGGPRVEFYTANQYSNFAAAIDRENAARVRSILHRRNLPAEQEAQRQREAAFRAYERAQADEVARSHAEEAEALERRRVKDERAQRRLATKTRRRSLTAAEVASRRSRHACLCRLAEPRKYQEAMYGSGMIGGAMPHQSGRDGKLPTVGRNGAVYCAGVDRDRIVPSRPALEGTVPPWKGSYSTHHGPHKLDAQMAKEAAAYYCAHPAPQRSASEQDMRQQTLQSIAAEHSMAAQQDGADVGMADASGAKGRSSVADAVQWHRMGSDNVDDEAGSIFSHGSSNGPIAATGNMHLSTTSTKHSVQLHLSRYGGAMTAPRPWRPSKAASENLTLPELADRLVCIQMSKSVVR: not soluble
MGHHHHHHSHGFYTIKEAERGVVTRFGKFSHLVEPGLNWKPTFIDEVKPVNVEAVRELAASGVMLTSDENVVRVEMNVQYRVTNPEKYLYSVTSPDDSLRQATDSALRGVIGKYTMDRILTEGRTVIRSDTQRELEETIRPYDMGITLLDVNFQAARPPEEVKAAFDDAIAARENEQQYIREAEA: soluble
SANEAYPCPCDIGHRLEYGGLGREVQVEHIKAYVTKSPVDAGKAVIVIQDIFGWQLPNTRYIADMISGNGYTTIVPDFFVGQEPWDPSGDWSIFPEWLKTRNAQKIDREISAILKYLKQQCHAQKIGIVGFCWGGTAVHHLMMKYSEFRAGVSVYGIVKDSEDIYNLKNPTLFIFAENDVVIPLKDVSLLTQKLKEHCKVEYQIKTFSGQTHGFVHRKREDCSPADKPYIDEARRNLIEWLNKYM: soluble
PEKPAKTQKTSLDEALQWRDSLDKLLQNNYGLASFKSFLKSEFSEENLEFWIACEDYKKIKSPAKMAEKAKQIYEEFIQTEAPKEVNIDHFTKDITMKNLVEPSLSSFDMAQKRIHALMEKDSLPRFVRSEFYQELI: soluble
MAAQVEIEDQESVTNLDNGEIINPISDNAPNFSGDATILLREATFEHNLIKNCFLSGMGSFATETTIVTVRKILTQRLITTKAKFAVFKLFTEAMKRKNNGYANIRYGWYSGSKEEIDRVITYGFSNREIKKVENDVGSHGVGIHLVHHRYSLAAALVGEGDEEGIKNILLCRVILGKPEQIVTGSKQSYPSSNQFDSGVDNLENPRKYVIWSCNMNSYILPTYIVSFKSHLLRGLIGRARSPCVSFSVLMSILSKSLDAARMNLILTSYDDFRKRKLRREQLVRKIREVVGDNLLFKILKNQRR: soluble

Query :: Note soluble on expression in E. coli for the sequence shown: VDLSDEEKDSIYMFASLVEKMKSRPLNEILEDSKLQNLAQRVFASKARLNYALNDKAQKYNTLIEMNGKISEIMNIYDRLLEQQLQSINLS
Result :: soluble

Query :: Note soluble on expression in E. coli for the sequence shown: MAHHHHHHMFYVDACSQNYRMPNSAPVFSQGFPQPNRAPSLVSPNDVQNCTNDGLVNPHQAPLFTVSQQGSVVAASVLPRTVLWTANGMYGVTQMREGPEEGATRFVPSKSPDGTPVSAMQSMFLPPMQQQQQQQQQASNCPLLYILTTVAVPQTYPQTSLQEQKSQHVTPVTHQIISMKGPSVAPSQSIGINTLNPSCITNNSDAMQTCGSGSKVNVNVVCRHFIKSCCNRRKCRFLHTLNEAPLANI
Result :: not soluble
